# assayedSystem: T1, Fc Receptor-like 5 (FcRL5), full length, overexpressed on 3T3 or Raji cells (human, UniProt Q96RD9 16-977)
# T1 construct: also called 3T3-FcRL5
# T1 sequence: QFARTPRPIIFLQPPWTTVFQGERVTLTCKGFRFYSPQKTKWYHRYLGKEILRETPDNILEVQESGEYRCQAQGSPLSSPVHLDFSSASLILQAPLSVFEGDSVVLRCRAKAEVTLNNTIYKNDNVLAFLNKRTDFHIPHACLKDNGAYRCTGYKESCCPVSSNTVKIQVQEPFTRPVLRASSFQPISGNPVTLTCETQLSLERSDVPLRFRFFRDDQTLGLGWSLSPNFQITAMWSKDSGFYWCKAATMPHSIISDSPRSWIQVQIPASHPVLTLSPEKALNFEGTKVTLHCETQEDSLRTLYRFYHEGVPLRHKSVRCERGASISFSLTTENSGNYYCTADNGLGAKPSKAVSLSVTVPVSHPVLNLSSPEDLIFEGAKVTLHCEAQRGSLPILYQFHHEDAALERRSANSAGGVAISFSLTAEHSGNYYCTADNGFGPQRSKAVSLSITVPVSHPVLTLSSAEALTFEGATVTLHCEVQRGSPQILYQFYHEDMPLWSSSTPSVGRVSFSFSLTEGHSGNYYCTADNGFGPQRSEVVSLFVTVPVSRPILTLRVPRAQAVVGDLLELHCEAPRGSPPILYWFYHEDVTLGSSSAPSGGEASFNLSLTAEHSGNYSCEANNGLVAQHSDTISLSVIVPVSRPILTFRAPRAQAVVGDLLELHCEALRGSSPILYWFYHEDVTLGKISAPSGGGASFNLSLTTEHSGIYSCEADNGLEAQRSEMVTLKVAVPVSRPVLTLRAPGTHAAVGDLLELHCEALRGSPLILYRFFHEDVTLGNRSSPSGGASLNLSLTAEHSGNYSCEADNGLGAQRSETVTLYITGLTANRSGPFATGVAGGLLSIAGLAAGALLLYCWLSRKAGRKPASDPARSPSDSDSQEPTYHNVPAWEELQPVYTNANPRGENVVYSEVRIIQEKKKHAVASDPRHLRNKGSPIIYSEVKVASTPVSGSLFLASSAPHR
# measurementDescription: phage clone screening on cells
reportedMetric: binding result

ET200-014 (scFv, screened as phage clone; entry is VL-linker-VH-His tag-HA tag) scFv: SYVLTQPPSVSVAPGKTARITCGGNNIGSKSVHWYQQKPGQAPVLVIYYDSDRPSGIPERFSGSNSGNTATLTISRVEAGDEADYYCQVWDSSSDHYVFGTGTKVTVLGSRGGGGSGGGGSGGGGSLEMAEVQLVETGGGLVQPGGSLRLSCAASGFTFSSYAMSWVRQAPGKGLEWVSAISGSDGSTYYADSVKGRFTISRDNSKNTLYLQMNSLRDEDTAVYYCARSHEANLVGDWWGQGTLVTVSSTSGQAGQHHHHHHGAYPYDVPDYAS :: binds
ET200-015 (scFv, screened as phage clone; entry is VL-linker-VH-His tag-HA tag) scFv: QSVVTQPPSVSVAPGKTARITCGGNNIGSKSVHWYQQKPGQAPVLVIYYDSDRPSGIPERFSGSNSGNTATLTISRVEAGDEADYYCQVWDSSSDVVFGGGTKLTVLGSRGGGGSGGGGSGGGGSLEMAEVQLVQSGAEVKKPGASVKVSCKASGYTFTSYGISWVRQAPGQGLEWMGWISAYNGNTNYAQKLQGRVTMTTDTSTSTAYMELRSLRSDDTAVYYCARWGGFGAVDHWGQGTLVTVSSTSGQAGQHHHHHHGAYPYDVPDYAS :: binds
